Entry source: PubChem BioAssay (NCI)

test system: SK-OV-3 ovarian; assay: NCI tumour cell line growth inhibition, 48 h
Would you kindly list TGI for each of these compounds?
Answers are plain numbers, in µM.

>  <given_smiles>
COc1cc2c(cc1OC)-c1ncc3c(OC)ccc(OC)c3c1C2

>  <TGI / µM>
98.7

$$$$
>  <given_smiles>
COC(=O)c1cc(-c2ccccc2)[nH]c1N/N=C/c1c(Cl)cccc1Cl

>  <TGI / µM>
3.26

$$$$
>  <given_smiles>
Cc1ccc2nc3ccccc3c(NCc3ccc(Cl)cc3)c2c1

>  <TGI / µM>
15.8

$$$$

Continue with the compound presented below.
Measured TGI, "O=S(=O)(O)O" : 2650

---

test system: LXFL 529 NSCLC; test: NCI tumour cell line growth inhibition, 48 h
I'd appreciate it if you could supply TGI values for the items below.

The cases that follow already have their TGI on record.
>  <molecule>
Cc1cc2c(c(C(N)=O)c1C)-c1cccc(F)c1C2=O

>  <observed>
> 100 µM

$$$$
>  <molecule>
CCCn1c(SCCSc2c3ccccc3c(-c3nc(F)nc(F)n3)n2CCC)c2ccccc2c1-c1nc(F)nc(F)n1

>  <observed>
> 100 µM

$$$$
>  <molecule>
C=CC(=O)N1C/C(=C\c2ccc(Cl)c(Cl)c2)C(=O)/C(=C/c2ccc(Cl)c(Cl)c2)C1

>  <observed>
0.345 µM

$$$$
>  <molecule>
CC(C(=O)OCc1ccccc1)N(Cc1ccccc1)Cc1ccccc1 (stereo not given)

>  <observed>
> 100 µM

$$$$

For every item in the list below, what is its measured TGI?
1. CC(C)C1CO[C@]2(C)CCC(=O)N12 (stereo not given in full)
2. Cc1ccc(S(=O)(=O)N/N=C(\c2nc3ccc(Cl)cc3[nH]c2=O)C(O)c2ccco2)cc1 (stereo not given)

OUTPUT:
["> 100 µM", "> 100 µM"]

Below are 4 molecules. Give each one its TGI.
1. CC(C)N(C(=O)c1cccc(C(=O)N(C(C)C)C(C)C)c1)C(C)C
2. C[N+]1=c2c3cccc4cccc(c(=O)n2CC1)c43
3. [N-]=[N+]=NC(c1cn(C2CC(O)C(CO)O2)c(=O)[nH]c1=O)C(Cl)Br (stereo not given)
4. COc1ccccc1N=Nc1c(-c2ccccc2)nn(C(=O)CC(=O)Nc2cccc(C)c2)c1-c1ccccc1

OUTPUT:
["> 100 µM", "42.4 µM", "> 100 µM", "> 100 µM"]

---

tested on: OVCAR-5 ovarian; experiment: NCI tumour cell line growth inhibition, 48 h
Field: GI50. Provide a value for each of the compounds that follow.

// worked examples, GI50 included
>  <compound>
CN1CCN(Cc2c[nH]c3c2C(=O)c2c(c(O)c4ccccc4c2O)C3=O)CC1

>  <tested_on>
OVCAR-5 ovarian

>  <GI50>
18.1 µM

$$$$
>  <compound>
CCCCNNC(=O)c1ccc(Br)cc1

>  <tested_on>
OVCAR-5 ovarian

>  <GI50>
1.01 µM

$$$$

Each compound below has a reported value. Please supply its GI50.
1. COc1cc(-c2nc3ccccc3s2)ccc1OCCCCOc1cc2c(cc1OC)C(=O)N1CCC[C@H]1C=N2
2. COc1c(C(C)=O)c(OCCCCOc2c(C(C)=O)c(OC)c3ccoc3c2OC)c(OC)c2occc12
3. Nc1ccn(C2CC(F)C(CO)O2)c(=O)n1 (stereo not given)

OUTPUT:
["1.13 µM", "> 100 µM", "> 100 µM"]

Give one value of GI50 per listed compound.
1. COc1cc2c(cc1OC)-c1ncc3c(OC)ccc(OC)c3c1C2
2. C=C1C(=O)O[C@H]2[C@H]1CC/C(COC(=O)CCCCCC(=O)OC/C1=C/CC[C@@]3(C)O[C@H]3[C@H]3OC(=O)C(=C)[C@@H]3CC1)=C\CC[C@@]1(C)O[C@@H]21
3. COc1ccccc1/C=C1\COc2ccc(-c3ccccc3)cc2C1=O
4. c1ccc(-c2nn3c(c2-c2ccnc4cc(OCCN5CCOCC5)ccc24)CCC3)nc1
5. O=C(NCCN1CCOCC1)OCc1nc2nc(Cl)nc(N3CCOCC3)c2[nH]1

OUTPUT:
44 µM
1.97 µM
5.29 µM
72.1 µM
4.42 µM

---

Answer each item with its documented TGI.
tested on: UACC-257 melanoma; assay: NCI tumour cell line growth inhibition, 48 h

Below are worked cases with known answers.
>  <molecule>
COc1ccc(C(=O)Cn2c(C(=O)c3ccccc3)nc3ccccc32)cc1

>  <observed>
> 100 µM

$$$$
>  <molecule>
O=c1[nH]nc(-c2ccccc2)n1/N=C/c1ccc([N+](=O)[O-])o1

>  <observed>
11.9 µM

$$$$
>  <molecule>
CC(C)(C)C1CCC2c3c([nH]c4ccccc34)C3C(=O)N(c4ccc(C#N)cc4)C(=O)C3C2C1 (stereo unspecified)

>  <observed>
82.9 µM

$$$$
>  <molecule>
CCOC(=O)c1ccc(Nc2nc3ccccc3nc2-c2cccs2)cc1

>  <observed>
> 100 µM

$$$$

// batch mode: one TGI value per listed entry
1. CCO/C=C1\N=C(c2ccc(Cl)c(Cl)c2)OC1=O
2. O=C(Nc1sccc1S(=O)(=O)c1ccc(Cl)cc1)c1ccc(F)cc1F

OUTPUT:
> 100 µM
> 100 µM

---

tested on: M14 melanoma; test: NCI tumour cell line growth inhibition, 48 h
recorded_metric: GI50

>  <compound>
CC1=CC2C(C(O)CC3(C)C2CC(C)C32OCOC23COCO3)C2(C)C/C(=C/O)C(=O)C=C12 (stereo unspecified)

>  <GI50>
1.66 µM

$$$$
>  <compound>
OCCCCC#Cc1ccccc1C#Cc1ccc(O)cc1

>  <GI50>
17.8 µM

$$$$
>  <compound>
COc1ccc([C@H](CC(=O)O)N2CCN(CCCc3ccc4c(n3)NCCC4)C2=O)cn1

>  <GI50>
> 100 µM

$$$$
>  <compound>
COc1ccc(-c2cc(=O)n(-c3nc4ccccc4[nH]3)[nH]2)cc1OC

>  <GI50>
6.74 µM

$$$$
>  <compound>
COc1ccc2c(c1)/C(=C\c1ccncc1)C(=O)N2

>  <GI50>
8.33 µM

$$$$

// next entry
The compound "CO/N=C(\COc1ccc2c(=O)c3ccccc3oc2c1)c1ccccc1" , tested on M14 melanoma, showed GI50 of 73.5 µM

---

Exercise: for every item that follows, state its recorded TGI.
tested on: M14 melanoma; assay: NCI tumour cell line growth inhibition, 48 h

>  <compound>
CC1CC/C(=C\c2ccc(F)cc2)C2=C1C(c1ccc(F)cc1)N1C(=O)CSC1=N2 (stereo unspecified)

>  <tested_on>
M14 melanoma

>  <TGI>
> 100 µM

$$$$
>  <compound>
O=C(COc1ccc(OCC(=O)N2C(=O)CC(=O)N(c3ccc(Cl)cc3)C2=S)cc1)N1C(=O)CC(=O)N(c2ccc(Cl)cc2)C1=S

>  <tested_on>
M14 melanoma

>  <TGI>
> 100 µM

$$$$
>  <compound>
Cn1cnc(N)c(N=O)c1=O

>  <tested_on>
M14 melanoma

>  <TGI>
> 10 µM

$$$$
>  <compound>
CC(=O)n1cc(C2CC23N=C(c2ccccc2)OC3=O)c2ccccc21 (stereo unspecified)

>  <tested_on>
M14 melanoma

>  <TGI>
34.9 µM

$$$$
>  <compound>
CN(C)c1ccc(Nc2c3ccccc3nc3ccccc23)cc1

>  <tested_on>
M14 melanoma

>  <TGI>
2.61 µM

$$$$

// each listed compound needs a value for TGI
1. CC(C(=O)OCc1ccccc1)N(Cc1ccccc1)Cc1ccccc1 (stereo unspecified)
2. CCOC(=O)C1CC(C(=O)c2ccccc2)N2c3ccccc3-c3ccccc3C12 (stereo unspecified)
3. O=c1[nH]nc(-c2ccccc2)n1/N=C/c1ccc([N+](=O)[O-])o1
4. Cn1nc2ccc(Nc3cc(=O)[nH]c4ccc5nn(C)nc5c34)cc2n1
5. Cn1cccc1-c1ccc(-c2ccc(CO)[se]2)[se]1
6. COc1ccc2c(c1)nc(NNC(=O)c1cnccn1)c1cccn12
7. COc1ccc(-c2c(C)c(C(=O)O)nc(-c3ccc4c(O)c(OC)c5c(c4n3)=NC(C)(C)N=5)c2N)c(O)c1OC

OUTPUT:
["> 100 µM", "74.2 µM", "11.2 µM", "> 100 µM", "> 100 µM", "3.78 µM", "74.6 µM"]

Below are 6 compounds. Give each one its TGI.
1. COC(=O)c1cc(-c2ccccc2)[nH]c1N/N=C/c1c(Cl)cccc1Cl
2. O=c1[nH]c(=O)n(C2CC(O)C(CO)O2)cc1Oc1ccccc1 (stereo unspecified)
3. C/C=C(\C)C(=O)OC1CC(OC(C)=O)C2(C(=O)OC)COC3C2C1(C)C1C2(C(=O)OC)OCC1(C3O)C1(O)C3CC(C4(O)C=COC4O3)C1(C)O2 (stereo unspecified)
4. COc1ccc(C2C3=C(N=C4SC(C(C)=O)=C(C)N42)c2ccccc2CC3)cc1 (stereo unspecified)
5. C#C[C@]1(O)CC[C@H]2[C@@H]3CCC4=C/C(=N/NC(=O)c5cccc6c(=O)c7ccccc7[nH]c56)CCC4[C@H]3CC[C@@]21C (stereo partly specified)
6. Cc1ccc(S(=O)(=O)N/N=C(\c2nc3ccc(Cl)cc3[nH]c2=O)C(O)c2ccco2)cc1 (stereo unspecified)

OUTPUT:
1.37 µM
> 100 µM
> 100 µM
> 100 µM
> 100 µM
> 100 µM

Give TGI for each listed item.
1. CC(=O)O[C@H]1CC[C@@]2(C)C(=CC[C@@H]3[C@@H]2CC[C@]2(C)C(=N/O)/C(=C\c4ccccc4)C[C@@H]32)C1
2. COc1ccc(-c2cc(=O)n(-c3nc4ccccc4[nH]3)[nH]2)cc1OC
3. O=C(/C(=C(/O)c1ccccc1)c1nc2ccccc2sc1=O)c1ccccc1
4. CCC(=O)N1C/C(=C/c2ccc(Cl)cc2)C(=O)/C(=C/c2ccc(Cl)cc2)C1
5. COc1ccccc1-n1c(=O)n(C)c(=O)n1C(C)(C)C
6. C[C@H]1[C@H](C)N1CC(O)Cn1ccnc1[N+](=O)[O-] (stereo partly specified)

OUTPUT:
39.3 µM
> 100 µM
33.3 µM
2.6 µM
> 100 µM
> 100 µM
